Ref: paper PMC4914108

Molecular target: T1, RacA DBD K15A (Bacillus subtilis, UniProt P45870 1-70, K15A)
T1 sequence: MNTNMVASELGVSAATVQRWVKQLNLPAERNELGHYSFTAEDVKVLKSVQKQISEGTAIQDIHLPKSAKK
Test: fluorescence polarization
pKd: −log10 of the molar value.
result.type: pKd

Bench note: what pKd did 14mer ram centromere site (FP) (dsDNA) DNA 1: TGACGCCGGCGTCA DNA 2: TGACGCCGGCGTCA show?
~4.30
